- METHOD: Plasma protein binding in rat assessed as unbound fraction
- Type: ADME, cell-free
ENDPOINT NAME: fraction unbound

A: C[C@H]1OC(=O)[C@]2(N)CC(F)(F)[C@@H](C)[C@H](/C=C/c3ccc(-c4ccccc4C#N)cn3)[C@H]12
B: CCNC(=O)N1C[C@H]2[C@H](C)[C@@H](C)[C@H](/C=C/c3ccc(-c4ccccc4C#N)cn3)[C@@H]3[C@@H](C)OC(=O)[C@@]32C1
C: Cc1cccc(-c2ccc(/C=C/[C@@H]3[C@@H]4[C@@H](C)OC(=O)[C@]4(O)CC(F)(F)[C@H]3C)nc2)c1C#N
// ascending sort on fraction unbound for the entries above Labels, ranked as asked. C, B, A

---

- METHOD: Clearance in intravenously dosed dog
- Assay type: ADME, organism-based, Canis lupus familiaris
- STATED CONDITIONS: in vivo, iv
ENDPOINT NAME: clearance (mL/min/kg)

1: CCNC(=O)N1C[C@H]2[C@H](C)[C@@H](C)[C@H](/C=C/c3ccc(-c4ccccc4C#N)cn3)[C@@H]3[C@@H](C)OC(=O)[C@@]32C1
2: Cc1cccc(-c2ccc(/C=C/[C@@H]3[C@@H]4[C@@H](C)OC(=O)[C@]4(O)CC(F)(F)[C@H]3C)nc2)c1C#N
Returns: the argument ( 1 or 2 ) having the larger clearance. Give the label under which the chosen entry appears. 2
(2: 26 mL/min/kg, 1: 5.6 mL/min/kg)

---

- METHOD: Cmax in Sprague-Dawley rat at 30 mg/kg, po
- Format: ADME, organism-based
- Parameters: route oral, dose 30 mg/kg
- STATED CONDITIONS: in vivo
ENDPOINT NAME: Cmax (µM)
Numeric only. Scale: µM

Fill in: Cmax of C[C@H]1OC(=O)[C@]2(N)CC(F)(F)[C@@H](C)[C@H](/C=C/c3ccc(-c4ccccc4C#N)cn3)[C@H]12 is ___ 12

---

- METHOD: Clearance in dog at 0.3 mg/kg, iv
- Assay type: ADME, organism-based, Canis lupus familiaris
- STATED CONDITIONS: in vivo
ENDPOINT NAME: clearance (L/h/kg)
Numeric only. Scale: L/h/kg

Fill in: clearance of C[C@H]1OC(=O)[C@]2(N)CC(F)(F)[C@@H](C)[C@H](/C=C/c3ccc(-c4ccccc4C#N)cn3)[C@H]12 is ___ 0.354

---

- METHOD: Cmax in Sprague-Dawley rat at 3 mg/kg, po
- Assay type: ADME, organism-based
- Set-up: route oral, dose 3 mg/kg
- STATED CONDITIONS: in vivo
ENDPOINT NAME: Cmax (nM)
Numeric only. Scale: nM

Fill in: Cmax of C[C@H]1OC(=O)[C@]2(N)CC(F)(F)[C@@H](C)[C@H](/C=C/c3ccc(-c4ccccc4C#N)cn3)[C@H]12 is ___ 360

---

- METHOD: MRT in dog at 0.3 mg/kg, iv
- Assay type: ADME, organism-based, Canis lupus familiaris
- STATED CONDITIONS: in vivo
ENDPOINT NAME: MRT (h)
Numeric only. Scale: h

Fill in: MRT of C[C@H]1OC(=O)[C@]2(N)CC(F)(F)[C@@H](C)[C@H](/C=C/c3ccc(-c4ccccc4C#N)cn3)[C@H]12 is ___ 18
